Measured values drawn from PubChem BioAssay for this set.

- assay_remarks: small-molecule microarray binders of probe aLefty2, primary screen, biochemical, biotinylated probe, 635/667 nm fluorescence (AID 1094);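 further: score merges spot fluorescence near 667 nm with spot signal-to-noise ratio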
- test_conditions: higher = more signal
Lab note: compare composite z-score against 0.2. Equal or greater, write yes. Smaller, write no.

test_smiles	classification
C=C(COC)/C(=C/C[C@H](OC(=O)c1ccncc1)c1cccc(OCCO)c1)c1cc(C(=O)OC)ccc1OC	no
[N-]=[N+]=NCc1ccccc1[C@@H]1OC(c2ccc(OCCCO)cc2)=N[C@]1(Cc1ccccc1)C(=O)N1CCCCC1	yes
C=CCNC(=O)[C@H]1[C@@H]2C(=O)O[C@@H](c3ccccc3)[C@@H](c3ccccc3)N2[C@@H](c2ccc(O)cc2)[C@]12C(=O)N(C(=O)OCCOC)c1ccc(C#CCCO)cc12	no
CCCNC(=O)[C@@]1(c2ccc([N+](=O)[O-])cc2)CC(=O)N(CC23CC4CC(CC(C4)C2)C3)[C@@H]1c1ccc(CO)cc1	no
[N-]=[N+]=Nc1ccccc1[C@@H]1OC(c2ccc(OCCCO)cc2)=N[C@]1(CCS(=O)(=O)c1ccccc1)C(=O)N1CCOCC1	yes
O=C1O[C@@H](c2ccccc2)[C@@H](c2ccccc2)N2[C@@H](c3ccc(O)cc3)[C@]3(C(=O)Nc4ccc(C#CC5(O)CCCCCC5)cc43)[C@@H](C(=O)N3CCCCCCC3)[C@H]12	yes
COC(=O)[C@]1(Cc2ccccc2N=[N+]=[N-])N=C(c2ccc(OCCCO)cc2)O[C@@H]1c1ccccc1N=[N+]=[N-]	no

---

- system_tested: Torsin-1A (Homo sapiens)
- assay_remarks: torsin A binders from cell lysate, primary screen, small-molecule microarray, wild-type, 635/667 nm (AID 1149)
- test_conditions: COS7 hTOR1A-WT lysate, 635 nm fluorescence, higher = more signal
Using composite z-score as the sorting value, the categories are Low (below 0.1), Mid (0.1 to below 0.4), High (0.4 or more)

molecule	classification
COc1cc(CO)ccc1OC(C)=O	High
CC(C)C[C@@H]1NC(=O)[C@@H]2C[C@H](C(=O)NCCCCCC[N+](C)(C)C)[C@H](c3ccc(O)cc3)N2C1=O	High
CS(=O)(=O)CCOC(=O)C1=CC(c2ccc(CO)cc2)=CC(C2CC2)N(Cc2cc3c(cc2Br)OCO3)C=C1C(=O)OCCS(C)(=O)=O (stereo not given)	Low
CCOC(=O)C[C@H]1[C@H](OC(=O)c2ccc(C(=O)c3ccccc3)cc2)[C@@H](NC(=O)C2CCCCC2)c2cc(OCCCO)ccc2N1C(=O)c1ccccc1	Mid
O=C1C=CC(=O)[C@@H]2CC(COc3ccccc3)=C3[C@@H](CCc4ccccc4)OB(O)C[C@@H]3[C@H]12	Low
[N-]=[N+]=Nc1ccccc1[C@@H]1OC(c2ccc(OCCCO)cc2)=N[C@]1(CCS(=O)(=O)c1ccccc1)C(=O)N1CCOCC1	High
COc1ccc([Si](C)(C)[C@H]2[C@H](CCn3cc([C@H](O)c4ccccc4)nn3)O[C@@]3(C(=O)N(Cc4cccc(N5CCC5=O)c4)c4ccccc43)[C@@H]2C)cc1	Mid
O=C/C=C/c1ccc2c(c1)OCO2	Mid
COc1ccc([Si](C)(C)[C@@H]2[C@@H](CC(=O)N(CCO)Cc3ccccc3)O[C@]3(C(=O)N(C)c4ccccc43)[C@H]2C)cc1	Low
CC(C)(C)N1CC=CC23O[C@@H]4/C=C\CCCOC(=O)C4[C@H]2C(=O)N(CCO)[C@@H]3C1=O (stereo not given in full)	Low
COc1ccc(C(=O)Nc2cccc(CN3C(=O)[C@]4(O[C@H](CC(=O)N5CCC[C@H]5CO)[C@@H]([Si](C)(C)c5ccc(OC)cc5)[C@@H]4C)c4ccccc43)c2)cc1	High
O=C1O[C@@H](c2ccccc2)[C@@H](c2ccccc2)N2[C@@H](c3ccc(OCCO)cc3)[C@]3(C(=O)Nc4ccc(C#CC5=CCCCC5)cc43)[C@@H](C(=O)O)[C@H]12	Low
COCCOC(=O)N1C(=O)[C@@]2(c3cc(C#CCC(C(=O)OC)C(=O)OC)ccc31)[C@H](c1ccc(O)cc1)N1[C@H](c3ccccc3)[C@H](c3ccccc3)OC(=O)[C@H]1[C@@H]2C(N)=O	High
CCCNC(=O)[C@@H]1c2ccccc2C(=O)N(Cc2ccccc2)[C@H]1c1ccc(CO)cc1	Low
C=CCNC(=O)[C@@H]1[C@H]2C(=O)O[C@H](c3ccccc3)[C@H](c3ccccc3)N2[C@H](c2ccc(OCCO)cc2)[C@@]12C(=O)Nc1ccccc12	Mid
Cc1c(NC(=O)CC#N)c(=O)n(-c2ccccc2)n1C	Mid
CC(C)C(=C=CC[C@@H](O)c1ccccc1OCCO)C[C@@H](O)c1ccccn1	Mid
[N-]=[N+]=Nc1ccccc1C[C@]1(C(=O)NCCN2CCOCC2)N=C(c2ccc(OCCCO)cc2)O[C@H]1c1ccccc1	High
COCCOC(=O)N1C(=O)[C@@]2(c3cc(C#CCNC(N)=O)ccc31)[C@H](c1ccc(O)cc1)N1[C@H](c3ccccc3)[C@H](c3ccccc3)OC(=O)[C@H]1[C@@H]2C(=O)NC[C@H](O)c1ccccc1	High

---

- assay_remarks: yeast growth modulation, basal conditions, primary screen, YJM789 clinical isolate, OD600, 24 h (AID 1089);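 further: growth of clinical yeast isolate S. cerevisiae YJM 789 seeded 1000 cells per well; test concentration not given here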
- test_conditions: S. cerevisiae YJM789 growth, higher = more signal, called active from +8 up or from −8 down

molecule	z-score
[N-]=[N+]=NCc1ccccc1[C@@H]1OC(c2ccc(OCCCO)cc2)=N[C@]1(Cc1ccccc1)C(=O)N1CCCCC1	-0.202
CCCC[C@H]1OB(O)C[C@H]2C1=C(C)C[C@H]1C(=O)N(Cc3ccccc3)C(=O)[C@H]12	-0.482
CS(=O)(=O)CCOC(=O)C1=CC(CCCO)=CC(c2cccs2)N(Cc2cc3c(cc2Br)OCO3)C=C1C(=O)OCCS(C)(=O)=O (configuration not stated)	0.187
COc1cccc(C(=O)O[C@H]2CC[C@]3(C)C4=C(CCC3C2(C)C)[C@]2(C)CC[C@H]([C@H](C)CCCC(C)C)[C@@]2(C)CC4)c1 (some centres not stated)	-1.73
COCCOC(=O)N1C(=O)[C@@]2(c3cc(C#CC4=CCCCC4)ccc31)[C@H](C(=O)N1CCc3cc(OC)c(OC)cc3C1)[C@H]1C(=O)O[C@H](c3ccccc3)[C@H](c3ccccc3)N1[C@@H]2c1ccccc1OCCO	1.51
COC(=O)[C@@]1(Cc2ccc(OC)cc2)[C@H]2c3cc(C(=O)N4CCCC4)n(CCc4c[nH]c5cc(F)ccc45)c3C[C@H]2CN1C(=O)c1ccccc1	0.548
COC(=O)[C@@]1(Cc2ccccc2)[C@H]2c3cc(C(=O)N4CCCC4)n(Cc4ccc(C)o4)c3C[C@H]2CN1C(=O)c1ccccc1	-0.619
Cc1ccccc1C(O)C1C=CC2C(=O)N(C)C(=O)C2N1Nc1ccccc1 (configuration not stated)	-0.145
Cc1ccc(F)cc1S(=O)(=O)N[C@@H]1CCN(Cc2ccc(-c3ccccc3)cc2)C1	-26.5
COC(=O)[C@@]1(Cc2ccc(F)cc2)[C@H]2c3cc(C(=O)N4CCCC4)n(Cc4cccc5ccccc45)c3C[C@H]2CN1C(=O)c1ccccc1	0.0247
C=C(CCCC)/C(=C/C[C@H](OC(C)=O)c1ccc(CO)o1)c1cnc2ccccc2c1	-0.237
CCCCC=C[C@@H](NC(=O)c1ccco1)c1ccccc1	0.529

---

- assay_remarks: fission yeast growth modulation, primary screen, strain 972, OD600, 24 h, no modulator (AID 1090);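 further: basal condition with compound alone and no growth modifier present; test concentration not given here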
- test_conditions: S. pombe 972 growth, higher = more signal, called active from +8 up or from −8 down

compound	z-score
[N-]=[N+]=NCc1ccccc1C[C@]1(C(=O)O)N=C(c2ccc(OCCCO)cc2)O[C@H]1c1ccccc1	-0.305
COc1ccc(C(O)C2C=CC3C(=O)NC(=O)C3N2Nc2ccccn2)cc1OCc1ccccc1 (centres undefined)	1.03
Cc1c(NC(=O)CC#N)c(=O)n(-c2ccccc2)n1C	-0.263
CCOC(=O)C1=C[C@@H](CC)N(S(=O)(=O)c2ccc(C)cc2)[C@H]1c1ccccc1	0.849
C[C@]1(C(=O)NCc2ccccc2)c2ccccc2C(=O)N(Cc2cc(F)cc(C(F)(F)F)c2)[C@H]1c1ccc(CO)cc1	-0.325
COc1ccc(C#Cc2ccc3c(c2)[C@]2(C(=O)N3)[C@H](c3ccc(O)cc3)N3[C@H](c4ccccc4)[C@H](c4ccccc4)OC(=O)[C@H]3[C@@H]2C(=O)N2CCCCCCC2)cc1	-0.0733
COC(=O)C[C@H]1O[C@]2(C(=O)N(Cc3ccccc3)c3ccc(NC(C)=O)cc32)[C@@H](C)[C@@H]1[Si](C)(C)c1ccc(OC)cc1	0.19
CC(C)N1C(=O)[C@@]2(c3ccc([N+](=O)[O-])cc3)CC(=O)N(CC34CC5CC(CC(C5)C3)C4)[C@@H]2c2ccc(CO)cc21	0.652
COc1cc(C(O)C2C=CC3C(=O)N(c4ccccc4)C(=O)C3N2Nc2ccc(C#N)cc2)cc(OC)c1OC (centres undefined)	0.849
